The origin of these recorded values is patent US7803930B2.

# Test system: human apolipoprotein B mRNA
# assay: Inhibition of human apolipoprotein B mRNA levels in HepG2 cells, quantitative real-time PCR
# Assay type: cell-based
# recorded_conditions: Table 11 gene walk; HepG2 cells, 150 nM; averages from two experiments
In the oligonucleotide strings, read from the 5' end, every base follows the letter of its sugar. An asterisk marks phosphorothioate; unmarked linkages are phosphodiester. Other units and linkages are bracketed, terminal groups are in braces. A string of capitals states the bases alone. e = 2'-O-(2-methoxyethyl) (MOE); [5mC] = 5-methylcytosine; d = 2'-deoxy (DNA)
value_kind: % INHIB 150 nm

{"substance": "308614 (eT*eT*eT*eA*eG*dG*dT*dT*dA*d[5mC]*d[5mC]*dA*dG*d[5mC]*d[5mC]*eA*e[5mC]*eA*eT*eG; antisense) [compound 308614]", "result": "92%"}
{"substance": "308606 (eT*eT*eG*eA*eA*dT*dG*dT*d[5mC]*dA*dT*dG*dG*dT*dA*eG*e[5mC]*e[5mC]*eT*e[5mC]; antisense) [compound 308606]", "result": "97%"}
{"substance": "308618 (eA*eG*eG*e[5mC]*eT*d[5mC]*d[5mC]*dT*dT*dT*dT*dA*dG*dG*dT*eT*eA*e[5mC]*e[5mC]*eA; antisense) [compound 308618]", "result": "77%"}

----------
# Test system: human apolipoprotein B mRNA
# assay: Inhibition of human apolipoprotein B mRNA levels in HepG2 cells, quantitative real-time PCR
# Type: cell-based
# recorded_conditions: HepG2 cells treated with 150 nM of compound; averages from two experiments; quantitative real-time PCR
In the oligonucleotide strings, read from the 5' end, every base follows the letter of its sugar. An asterisk marks phosphorothioate; unmarked linkages are phosphodiester. Other units and linkages are bracketed, terminal groups are in braces. A string of capitals states the bases alone. e = 2'-O-(2-methoxyethyl) (MOE); [5mC] = 5-methylcytosine; d = 2'-deoxy (DNA)
value_kind: % INHIB (inhibition of human apolipoprotein B mRNA levels) (%)

{"substance": "271034 (e[5mC]*eA*e[5mC]*eT*eG*dA*dA*dG*dA*d[5mC]*d[5mC]*dG*dT*dG*dT*eG*e[5mC]*eT*e[5mC]*eT; antisense) [compound 271034]", "system_name": "human apolipoprotein B mRNA", "numeric_result": 35}
{"substance": "301030 (eA*eG*eG*e[5mC]*eT*dG*dG*d[5mC]*dT*d[5mC]*dA*d[5mC]*dT*dG*dT*eA*eT*eG*eG*eT; antisense) [compound 301030]", "system_name": "human apolipoprotein B mRNA", "numeric_result": 90}
{"substance": "281592 (eG*e[5mC]*eT*eG*eA*dT*d[5mC]*dA*dG*dA*dG*dT*dT*dG*dA*e[5mC]*eA*eA*eG*eG; antisense) [compound 281592]", "system_name": "human apolipoprotein B mRNA", "numeric_result": 56}

----------
This section presents substances with their documented Percent Inhibition 300 nM values.
# Test system: mouse apolipoprotein B mRNA
# assay: Inhibition of mouse apolipoprotein B mRNA levels in primary mouse hepatocytes, real-time PCR
# Assay type: cell-based
# recorded_conditions: Table 4, 300 nM
In the oligonucleotide strings, read from the 5' end, every base follows the letter of its sugar. An asterisk marks phosphorothioate; unmarked linkages are phosphodiester. Other units and linkages are bracketed, terminal groups are in braces. A string of capitals states the bases alone. e = 2'-O-(2-methoxyethyl) (MOE); [5mC] = 5-methylcytosine; d = 2'-deoxy (DNA)
value_kind: Percent Inhibition 300 nM (%)

{"substance": "147764 (eG*eT*e[5mC]*e[5mC]*e[5mC]*dT*dG*dA*dA*dG*dA*dT*dG*dT*d[5mC]*eA*eA*eT*eG*e[5mC]) [compound 147764]", "measurement_units": "%", "numeric_result": 90}
{"substance": "147483 (ATGTCAATGCCACATGTCCA; phosphorothioate, 2'-MOE wings, chemistry not fully specified) [compound 147483]", "measurement_units": "%", "numeric_result": 89}
{"substance": "147776 (antisense eG*e[5mC]*eT*eT*eG*dA*dA*dG*dT*dT*d[5mC]*dA*dT*dT*dG*eA*eG*eA*eA*eT) [compound 147776]", "measurement_units": "%", "numeric_result": 44}
{"substance": "147769 (e[5mC]*eA*eT*eG*e[5mC]*d[5mC]*dT*dG*dG*dA*dA*dG*d[5mC]*d[5mC]*dA*eG*eT*eG*eT*e[5mC]) [compound 147769]", "measurement_units": "%", "numeric_result": 28}
